biological target: thrombin (UniProt P00735)
pKi: −log10 of the molar value.
Response key: true (1) means pKi >= 6; false (0) means pKi < 6.

[
  {
    "structure.smiles": "N=C(N)NCC[C@@H](NS(=O)(=O)Cc1ccccc1)C(=O)NCC(=O)NCc1ccc(C(=N)N)cc1",
    "assigned.category": "false (0)"
  },
  {
    "structure.smiles": "N=C(N)c1ccc(CNC(=O)[C@H](CCC(N)=O)NC(=O)[C@@H](CO)NS(=O)(=O)Cc2ccccc2)cc1",
    "assigned.category": "true (1)"
  },
  {
    "structure.smiles": "CC(C)(C)OC[C@@H](NS(=O)(=O)Cc1ccccc1)C(=O)N[C@@H](Cc1c[nH]cn1)C(=O)NCc1ccc(C(=N)N)cc1",
    "assigned.category": "true (1)"
  },
  {
    "structure.smiles": "CC(C)(C)OC[C@@H](NS(=O)(=O)Cc1ccccc1)C(=O)N[C@@H](CN)C(=O)NCc1ccc(C(=N)N)cc1",
    "assigned.category": "true (1)"
  },
  {
    "structure.smiles": "CC(C)(C)OC[C@@H](NS(=O)(=O)Cc1ccc(CN)cc1)C(=O)NCC(=O)NCc1ccc(C(=N)N)cc1",
    "assigned.category": "true (1)"
  },
  {
    "structure.smiles": "N=C(N)c1ccc(CNC(=O)[C@H](CCCCN)NC(=O)[C@@H](CO)NS(=O)(=O)Cc2ccccc2)cc1",
    "assigned.category": "false (0)"
  },
  {
    "structure.smiles": "N=C(N)NCc1cccc(C[C@@H](NS(=O)(=O)Cc2ccccc2)C(=O)NCC(=O)NCc2ccc(C(=N)N)cc2)c1",
    "assigned.category": "true (1)"
  }
]

###

molecular target: human factor XIIa (Homo sapiens)
Sequence (P00748 373-615 limits assumed, other chains not shown): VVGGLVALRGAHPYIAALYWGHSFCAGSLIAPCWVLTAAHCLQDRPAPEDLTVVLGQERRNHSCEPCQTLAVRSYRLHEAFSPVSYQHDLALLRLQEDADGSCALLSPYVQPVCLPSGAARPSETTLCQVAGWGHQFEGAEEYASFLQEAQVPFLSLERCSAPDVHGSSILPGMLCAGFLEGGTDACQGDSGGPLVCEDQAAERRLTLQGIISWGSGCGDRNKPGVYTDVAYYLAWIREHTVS
Ki strictly under 7 µM means T; at 7 µM or over means F.

[
  {
    "compound": "N=C(N)c1ccc(CNC(=O)[C@H](CCC(=O)O)NC(=O)[C@@H](CO)NS(=O)(=O)Cc2ccccc2)cc1",
    "measurement.target": "human factor XIIa (Homo sapiens)",
    "assigned.category": "F"
  },
  {
    "compound": "CC(C)(C)OC[C@@H](NS(=O)(=O)Cc1ccccc1)C(=O)N[C@@H](CNC(=O)OCc1ccccc1)C(=O)NCc1ccc(C(=N)N)cc1",
    "measurement.target": "human factor XIIa (Homo sapiens)",
    "assigned.category": "T"
  },
  {
    "compound": "N=C(N)c1ccc(CNC(=O)CNC(=O)[C@@H](Cc2cccc(C(=N)N)c2)NS(=O)(=O)Cc2ccccc2)cc1",
    "measurement.target": "human factor XIIa (Homo sapiens)",
    "assigned.category": "T"
  },
  {
    "compound": "COC(=O)c1ccc(CS(=O)(=O)N[C@H](CO)C(=O)N[C@@H](CO)C(=O)NCc2ccc(C(=N)N)cc2)cc1",
    "measurement.target": "human factor XIIa (Homo sapiens)",
    "assigned.category": "F"
  },
  {
    "compound": "N=C(N)c1ccc(CNC(=O)[C@H](CO)NC(=O)[C@@H](CO)NS(=O)(=O)Cc2ccc(C(=O)O)cc2)cc1",
    "measurement.target": "human factor XIIa (Homo sapiens)",
    "assigned.category": "F"
  },
  {
    "compound": "N=C(N)c1ccc(CNC(=O)[C@H](CO)NC(=O)[C@@H](CCc2ccccc2)NS(=O)(=O)Cc2ccccc2)cc1",
    "measurement.target": "human factor XIIa (Homo sapiens)",
    "assigned.category": "T"
  },
  {
    "compound": "C[C@@H](OCc1ccccc1)[C@H](NC(=O)[C@@H](CO)NS(=O)(=O)Cc1ccccc1)C(=O)NCc1ccc(C(=N)N)cc1",
    "measurement.target": "human factor XIIa (Homo sapiens)",
    "assigned.category": "F"
  },
  {
    "compound": "C[C@H](NC(=O)[C@@H](CO)NS(=O)(=O)Cc1ccccc1)C(=O)NCc1ccc(C(=N)N)cc1",
    "measurement.target": "human factor XIIa (Homo sapiens)",
    "assigned.category": "F"
  },
  {
    "compound": "N=C(N)c1ccc(CNC(=O)[C@H](CCC(N)=O)NC(=O)[C@@H](CO)NS(=O)(=O)Cc2ccccc2)cc1",
    "measurement.target": "human factor XIIa (Homo sapiens)",
    "assigned.category": "F"
  },
  {
    "compound": "N=C(N)c1ccc(CNC(=O)CNC(=O)[C@@H](CCc2ccccc2)NS(=O)(=O)Cc2ccccc2)cc1",
    "measurement.target": "human factor XIIa (Homo sapiens)",
    "assigned.category": "T"
  },
  {
    "compound": "C[C@H](NC(=O)[C@@H](COC(C)(C)C)NS(=O)(=O)Cc1ccccc1)C(=O)NCc1ccc(C(=N)N)cc1",
    "measurement.target": "human factor XIIa (Homo sapiens)",
    "assigned.category": "T"
  },
  {
    "compound": "CC(C)(C)OC[C@@H](NS(=O)(=O)Cc1ccc(C#N)cc1)C(=O)N1CCC[C@H]1C(=O)NCc1ccc(C(=N)N)cc1",
    "measurement.target": "human factor XIIa (Homo sapiens)",
    "assigned.category": "T"
  },
  {
    "compound": "N=C(N)c1ccc(CNC(=O)CNC(=O)[C@@H](CO)NS(=O)(=O)Cc2ccc(C(=O)O)cc2)cc1",
    "measurement.target": "human factor XIIa (Homo sapiens)",
    "assigned.category": "F"
  },
  {
    "compound": "CC(C)(C)OC[C@@H](NS(=O)(=O)Cc1ccccc1)C(=O)N[C@@H](CCCCN)C(=O)NCc1ccc(C(=N)N)cc1",
    "measurement.target": "human factor XIIa (Homo sapiens)",
    "assigned.category": "T"
  },
  {
    "compound": "CC(C)(C)OC[C@@H](NS(=O)(=O)Cc1ccccc1)C(=O)N[C@@H](CN)C(=O)NCc1ccc(C(=N)N)cc1",
    "measurement.target": "human factor XIIa (Homo sapiens)",
    "assigned.category": "T"
  },
  {
    "compound": "CC(C)(C)OC[C@@H](NS(=O)(=O)Cc1ccccc1)C(=O)N[C@@H](CCCCNC(=O)C(F)(F)F)C(=O)NCc1ccc(C(=N)N)cc1",
    "measurement.target": "human factor XIIa (Homo sapiens)",
    "assigned.category": "T"
  },
  {
    "compound": "N=C(N)c1ccc(CNC(=O)C2CCCN2C(=O)C(CO)NS(=O)(=O)Cc2ccccc2)cc1 (centres unmarked)",
    "measurement.target": "human factor XIIa (Homo sapiens)",
    "assigned.category": "T"
  },
  {
    "compound": "CC(C)(C)OC[C@@H](NS(=O)(=O)Cc1ccccc1)C(=O)N[C@@H](CO)CC(=O)NCc1ccc(C(=N)N)cc1",
    "measurement.target": "human factor XIIa (Homo sapiens)",
    "assigned.category": "F"
  },
  {
    "compound": "C[C@@H](OCc1ccccc1)[C@H](NC(=O)[C@@H](COC(C)(C)C)NS(=O)(=O)Cc1ccccc1)C(=O)NCc1ccc(C(=N)N)cc1",
    "measurement.target": "human factor XIIa (Homo sapiens)",
    "assigned.category": "F"
  }
]
